Reference source for all entries: patent US8067220B2

Test system: MGLL
Test: Michaelis-Menten kinetics, hydrolysis of 4-methylcoumarin butyrate (4MC-B)
Type: biochemical, human
Conditions: substrate 4MC-B; 4-5 nM MGLL, 20 mM Pipes pH 7, 150 mM NaCl, 37° C.; average of 2 or 4 assays
Please respond with reported Km for every item in the list.
Numbers only; they are read as µM.

// query Km value for entry mut-MGLL. 1-303, L167Q, L174Q: human MGLL 1-303 with cap-domain mutations L167Q, L174Q (protein, UniProt Q99685 1-303, looked up, variant L167Q L174Q) Monoglyceride lipase: MPEESSPRRTPQSIPYQDLPHLVNADGQYLFCRYWKPTGTPKALIFVSHGAGEHSGRYEELARMLMGLDLLVFAHDHVGHGQSEGERMVVSDFHVFVRDVLQHVDSMQKDYPGLPVFLLGHSMGGAIAILTAAERPGHFAGMVLISPLVLANPESATTFKVLAAKVQNLVLPNQSLGPIDSSVLSRNKTEVDIYNSDPLICRAGLKVCFGIQLLNAVSRVERALPKLTVPFLLLQGSADRLCDSKGAYLLMELAKSQDKTLKIYEGAYHVLHKELPEVTNSVFHEINMWVSQRTATAGTASPP
84

Thanks! And mut-MGLL 1-303, L171Q: human MGLL 1-303 with cap-domain mutation L171Q (protein, UniProt Q99685 1-303, looked up, variant L171Q) Monoglyceride lipase: MPEESSPRRTPQSIPYQDLPHLVNADGQYLFCRYWKPTGTPKALIFVSHGAGEHSGRYEELARMLMGLDLLVFAHDHVGHGQSEGERMVVSDFHVFVRDVLQHVDSMQKDYPGLPVFLLGHSMGGAIAILTAAERPGHFAGMVLISPLVLANPESATTFKVLAAKVLNLVQPNLSLGPIDSSVLSRNKTEVDIYNSDPLICRAGLKVCFGIQLLNAVSRVERALPKLTVPFLLLQGSADRLCDSKGAYLLMELAKSQDKTLKIYEGAYHVLHKELPEVTNSVFHEINMWVSQRTATAGTASPP ?
105

Thanks! And mut-MGLL 1-303, L167Q, L171Q: human MGLL 1-303 with cap-domain mutations L167Q, L171Q (protein, UniProt Q99685 1-303, looked up, variant L167Q L171Q) Monoglyceride lipase: MPEESSPRRTPQSIPYQDLPHLVNADGQYLFCRYWKPTGTPKALIFVSHGAGEHSGRYEELARMLMGLDLLVFAHDHVGHGQSEGERMVVSDFHVFVRDVLQHVDSMQKDYPGLPVFLLGHSMGGAIAILTAAERPGHFAGMVLISPLVLANPESATTFKVLAAKVQNLVQPNLSLGPIDSSVLSRNKTEVDIYNSDPLICRAGLKVCFGIQLLNAVSRVERALPKLTVPFLLLQGSADRLCDSKGAYLLMELAKSQDKTLKIYEGAYHVLHKELPEVTNSVFHEINMWVSQRTATAGTASPP ?
84

Thanks! And mut-MGLL 9-303, L169S, L176S: N-terminally truncated human MGLL 9-303 with L169S, L176S (protein, UniProt Q99685 9-303, looked up, variant L169S L176S) RTPQSIPYQDLPHLVNADGQYLFCRYWKPTGTPKALIFVSHGAGEHSGRYEELARMLMGLDLLVFAHDHVGHGQSEGERMVVSDFHVFVRDVLQHVDSMQKDYPGLPVFLLGHSMGGAIAILTAAERPGHFAGMVLISPLVLANPESATTFKVLAAKVLNSVLPNLSSGPIDSSVLSRNKTEVDIYNSDPLICRAGLKVCFGIQLLNAVSRVERALPKLTVPFLLLQGSADRLCDSKGAYLLMELAKSQDKTLKIYEGAYHVLHKELPEVTNSVFHEINMWVSQRTATAGTASPP ?
88
